Just for reference, the supplement of paper PMC10126150 is where these values come from.

test system: ATP; experiment: switch fluorescence ratio, 500 uM ATP over buffer (Cy3 cluster intensity, sum of 5 cycles each) (fold (ratio)); higher = stronger signal-on switching upon ATP binding; sequences stand for … in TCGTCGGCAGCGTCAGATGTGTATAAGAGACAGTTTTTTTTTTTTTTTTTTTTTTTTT…TC; conditions: aptamer strand: ATP DNA aptamer (quencher-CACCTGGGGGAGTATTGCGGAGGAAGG + anchor), 100 nM annealed; ATP concentration: 500 uM;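 further: ATP exposure 15 min at 22 °C before imaging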
Each entry gets condition not met if its switch fluorescence ratio stays under 1, and condition met if its switch fluorescence ratio is 1 or above.

Here's what some known entries look like.
CGTGTGGCGA; condition met
GGTTAAGGCC; condition met
TCAGGGCGCA; condition met

Is the recorded value of switch fluorescence ratio equal to or greater than 1 for this sequence? `CGGCAGTAAT`
condition met

Is the recorded value of switch fluorescence ratio equal to or greater than 1 for this sequence? `AGGGCAGGAC`
condition met

Is the recorded value of switch fluorescence ratio equal to or greater than 1 for this sequence? `GGACACGTTG`
condition met

Is the recorded value of switch fluorescence ratio equal to or greater than 1 for this sequence? `TGCGAAGGTT`
condition met

Is the recorded value of switch fluorescence ratio equal to or greater than 1 for this sequence? `GAAGTGTGGG`
condition not met

Is the recorded value of switch fluorescence ratio equal to or greater than 1 for this sequence? `TCACATTTTC`
condition met
